Just for reference, ChEMBL document CHEMBL2016559 is where these values come from.

Tested on: A549
assay details: Cytotoxicity against human A549 cells after 48 hrs by MTT assay
Assay type: functional, cell-based
setup conditions: A549, 48 h
measure name: IC50

structure string	IC50
CC(=O)OC(C)(C)CCC(=O)[C@](C)(O)[C@H]1C(=O)C[C@@]2(C)[C@@H]3CC=C4[C@@H](C=C(O)C(=O)C4(C)C)[C@]3(C)C(=O)C[C@]12C	> 100 µM
CC(=O)O[C@H]1C[C@@H]2C(=CC[C@@H]3[C@@]2(C)C(=O)C[C@]2(C)[C@@H]([C@@](C)(O)C(=O)/C=C/C(C)(C)OC(C)=O)[C@H](OC(C)=O)C[C@@]32C)C(C)(C)C1=O	14.7 µM
CC(=O)OC(C)(C)CCC(=O)[C@](C)(O)[C@H]1[C@H](O)C[C@@]2(C)[C@@H]3CC=C4[C@@H](C=C(N)C(=O)C4(C)C)[C@]3(C)C(=O)C[C@]12C	> 100 µM

Can you look up the measured IC50 of "CC(=O)O[C@@H]1C[C@@]2(C)[C@@H]3CC=C4[C@@H](C[C@H](SC(C)=O)C(=O)C4(C)C)[C@]3(C)C(=O)C[C@]2(C)[C@H]1[C@@](C)(O)C(=O)CCC(C)(C)OC(C)=O" for me?
> 100 µM

Bench note: what IC50 did "CC(=O)OC(C)(C)CCC(=O)[C@](C)(O)[C@H]1[C@H](O)C[C@@]2(C)[C@@H]3CC=C4[C@@H](CCC(=O)C4(C)C)[C@]3(C)C(=O)C[C@]12C" show?
> 100 µM

###

pIC50 by entry:
Tested on: A549
assay details: Cytotoxicity against human A549 cells after 48 hrs by MTT assay
Assay type: functional, cell-based
setup conditions: A549, 48 h
A value of pIC50 is the negative decimal logarithm of a concentration given in moles per litre.

molecule	test target	pIC50
CC(=O)OC(C)(C)/C=C/C(=O)[C@](C)(O)[C@H]1[C@H](O)C[C@@]2(C)[C@@H]3CC=C4[C@@H](Cc5sc(N)nc5C4(C)C)[C@]3(C)C(=O)C[C@]12C	A549	4.54
CC(=O)OC(C)(C)/C=C/C(=O)[C@](C)(O)[C@H]1[C@H](O)C[C@@]2(C)[C@@H]3CC=C4[C@H](C[C@H](O)C(=O)C4(C)C)[C@]3(C)C(=O)C[C@]12C [CUCURBITACIN B]	A549	6.89

For the molecule "CC(=O)OC(C)(C)CCC(=O)[C@](C)(O)[C@H]1[C@H](O)C[C@@]2(C)[C@@H]3CC=C4[C@@H](C=CC(=O)C4(C)C)[C@]3(C)C(=O)C[C@]12C" , what pIC50 is on record?
4.06

###

Reported pIC50 is given for each of the following compounds.
Test system: A549
assay details: Cytotoxicity against human A549 cells after 48 hrs by MTT assay
Assay type: functional, cell-based
setup conditions: A549, 48 h
Please keep in mind that pIC50 is minus log10 of the molar concentration; only the number is needed.

compound	test target	pIC50
CC(=O)OC(C)(C)CCC(=O)[C@](C)(O)[C@H]1[C@H](O)C[C@@]2(C)[C@@H]3CC=C4[C@@H](C[C@H](O)C(=O)C4(C)C)[C@]3(C)C(=O)C[C@]12C [23,24-DIHYDROCUCURBITACIN B]	A549	4.70
CC(=O)OC(C)(C)CCC(=O)[C@](C)(O)[C@H]1C(=O)C[C@@]2(C)[C@@H]3CC=C4[C@@H](C[C@H](O)C(=O)C4(C)C)[C@]3(C)C(=O)C[C@]12C	A549	4.26

Here is another compound to look at.
Which pIC50 value belongs to COc1cccc2c1C(=O)c1c(O)c3c(c(O)c1C2=O)C[C@@](O)(C(=O)CO)C[C@@H]3O[C@H]1C[C@H](N)[C@H](O)[C@H](C)O1 [DOXORUBICIN] ?
5.43

###

System: A549
assay details: Cytotoxicity against human A549 cells after 48 hrs by MTT assay
Assay type: functional, cell-based
setup conditions: A549, 48 h
pIC50: −log10 of the molar value.
measure name: pIC50

structure string	test result
CC(=O)[C@H]1[C@H](O)C[C@@]2(C)[C@@H]3CC=C4[C@@H](C[C@H](O)[C@@H](O)C4(C)C)[C@]3(C)C(=O)C[C@]12C	< 4.00
CC(=O)OC(C)(C)/C=C/C(=O)[C@](C)(O)[C@H]1[C@H](O)C[C@@]2(C)[C@@H]3CC=C4[C@@H](C=C(N)C(=O)C4(C)C)[C@]3(C)C(=O)C[C@]12C	6.38
CC(=O)O[C@@H]1C[C@@]2(C)[C@@H]3CC=C4[C@@H](C[C@H](Sc5ccccc5)C(=O)C4(C)C)[C@]3(C)C(=O)C[C@]2(C)[C@H]1[C@@](C)(O)C(=O)CCC(C)(C)OC(C)=O	< 4.00
CC(=O)OC(C)(C)/C=C/C(=O)[C@](C)(O)[C@H]1[C@H](O)C[C@@]2(C)[C@@H]3CC=C4[C@@H](C[C@H](Br)C(=O)C4(C)C)[C@]3(C)C(=O)C[C@]12C	5.88
CC(=O)OC(C)(C)CCC(=O)[C@](C)(O)[C@H]1[C@H](OC(=O)c2ccccc2)C[C@@]2(C)[C@@H]3CC=C4[C@@H](C[C@H](OC(=O)c5ccccc5)C(=O)C4(C)C)[C@]3(C)C(=O)C[C@]12C	< 4.00
CC(=O)[C@H]1[C@H](OC(=O)c2ccccc2)C[C@@]2(C)[C@@H]3CC=C4[C@@H](C[C@H](OC(=O)c5ccccc5)[C@@H](O)C4(C)C)[C@]3(C)C(=O)C[C@]12C	< 4.00

Item "CC(=O)OC(C)(C)CCC(=O)[C@](C)(O)[C@H]1[C@H](O)C[C@@]2(C)[C@@H]3CC=C4[C@@H](Cc5sc(N)nc5C4(C)C)[C@]3(C)C(=O)C[C@]12C" has what recorded pIC50?
< 4.00

###

System: A549
assay details: Ratio of IC50 for human A549 cells after 48 hrs to IC50 for human A549 cells after 72 hrs
Assay type: functional
In this section we review reported Ratio IC50 values for a set of compounds.
# output: bare number, no unit

Example cases with answers are listed next.
compound	Ratio IC50
CC(=O)OC(C)(C)CCC(=O)[C@](C)(O)[C@H]1[C@H](O)C[C@@]2(C)[C@@H]3CC=C4[C@@H](C=CC(=O)C4(C)C)[C@]3(C)C(=O)C[C@]12C	1.1
CC(=O)O[C@H]1C[C@@H]2C(=CC[C@@H]3[C@@]2(C)C(=O)C[C@]2(C)[C@@H]([C@@](C)(O)C(=O)/C=C/C(C)(C)OC(C)=O)[C@H](OC(C)=O)C[C@@]32C)C(C)(C)C1=O	5.5
CC(=O)OC(C)(C)/C=C/C(=O)[C@](C)(O)[C@H]1[C@H](O)C[C@@]2(C)[C@@H]3CC=C4[C@H](C[C@H](O)C(=O)C4(C)C)[C@]3(C)C(=O)C[C@]12C [CUCURBITACIN B]	3.3
CC(=O)OC(C)(C)/C=C/C(=O)[C@](C)(O)[C@H]1[C@H](O)C[C@@]2(C)[C@@H]3CC=C4[C@@H](Cc5sc(N)nc5C4(C)C)[C@]3(C)C(=O)C[C@]12C	2.5

Here's the next entry for you.
Using the record for "CC(=O)OC(C)(C)/C=C/C(=O)[C@](C)(O)[C@H]1[C@H](O)C[C@@]2(C)[C@@H]3CC=C4[C@@H](C=C(N)C(=O)C4(C)C)[C@]3(C)C(=O)C[C@]12C" , report its Ratio IC50.
3.5

###

Tested on: A549
assay details: Ratio of IC50 for human A549 cells after 48 hrs to IC50 for human A549 cells after 72 hrs
Type: functional
measure name: Ratio IC50
// no unit string in output, number only

Sample records with Ratio IC50:
molecule	Ratio IC50
CC(=O)OC(C)(C)CCC(=O)[C@](C)(O)[C@H]1C(=O)C[C@@]2(C)[C@@H]3CC=C4[C@@H](C[C@H](O)C(=O)C4(C)C)[C@]3(C)C(=O)C[C@]12C	2.1
COc1cccc2c1C(=O)c1c(O)c3c(c(O)c1C2=O)C[C@@](O)(C(=O)CO)C[C@@H]3O[C@H]1C[C@H](N)[C@H](O)[C@H](C)O1 [DOXORUBICIN]	3.1
CC(=O)O[C@H]1C(=O)[C@@]2(C)[C@H]([C@H](OC(=O)c3ccccc3)[C@]3(O)C[C@H](OC(=O)[C@H](O)[C@@H](NC(=O)c4ccccc4)c4ccccc4)C(C)=C1C3(C)C)[C@]1(OC(C)=O)CO[C@@H]1C[C@@H]2O [PACLITAXEL]	6.1
CC(=O)OC(C)(C)CCC(=O)[C@](C)(O)[C@H]1[C@H](O)C[C@@]2(C)[C@@H]3CC=C4[C@@H](C[C@H](O)C(=O)C4(C)C)[C@]3(C)C(=O)C[C@]12C [23,24-DIHYDROCUCURBITACIN B]	1.6

Could you tell me which Ratio IC50 is on file for "CC(=O)OC(C)(C)/C=C/C(=O)[C@](C)(O)[C@H]1[C@H](O)C[C@@]2(C)[C@@H]3CC=C4[C@@H](C[C@H](Br)C(=O)C4(C)C)[C@]3(C)C(=O)C[C@]12C" ?
11.1

# lookup: Ratio IC50 of "CC(=O)OC(C)(C)CCC(=O)[C@](C)(O)[C@H]1[C@H](O)C[C@@]2(C)[C@@H]3CC=C4[C@@H](C[C@H](Br)C(=O)C4(C)C)[C@]3(C)C(=O)C[C@]12C"
1.2

Quick one: Ratio IC50 for "CC(=O)OC(C)(C)CCC(=O)[C@](C)(O)[C@H]1[C@H](OC(=S)n2ccnc2)C[C@@]2(C)[C@@H]3CC=C4[C@@H](C[C@H](OC(=S)n5ccnc5)C(=O)C4(C)C)[C@]3(C)C(=O)C[C@]12C" ?
2.1
